# assayMethodText: LAMP-1 surface exposure blockers, TALL-104 cells – cell-based, flow cytometry, MLPCN library, primary screen (AID 651702)
# experimentalSetup: TALL-104 LAMP-1 surface exposure, at 10 µM, active compounds read high, cells stimulated with thapsigargin and PMA
Among all 360,000 compounds or so, about 2,400 (0.67%) were called active. This excerpt belongs to a sample that is enriched for actives.
readoutLabel: inhibition (%)
Your answer should be a plain number; it is taken to be in %.

Answered examples (5):
molecule: CC[C@@H]1CCCCc2ccccc2[C@@H](C(=O)C[C@H](O)CC(C)=O)OC1=O
readoutLabel: inhibition
unitSpec: %
measurement: -4.4

molecule: CC(=O)OCC(=O)C1(O)CCC2C3CC(C)C4=CC(=O)CCC4(C)C3C(O)CC21C (centres undefined)
readoutLabel: inhibition
unitSpec: %
measurement: -8.4

molecule: COc1ccccc1CNc1nc(Nc2ccccc2Cl)c2sccc2n1
readoutLabel: inhibition
unitSpec: %
measurement: 2

molecule: COc1ccc(C(O)C(O)(C(=O)OC(C)C)c2ccc(C)cc2)cc1 (centres undefined)
readoutLabel: inhibition
unitSpec: %
measurement: -2.2

molecule: Cc1ccc(S(=O)(=O)NCCSC(C)(C)C)cc1
readoutLabel: inhibition
unitSpec: %
measurement: 11

Lookup: Record request: inhibition value, item O=C(COc1coc(CN2CCN(c3ccccc3)CC2)cc1=O)Nc1ccccc1F
Found: 10.5

Lookup: Record request: inhibition value, item COc1ccc(CCNC(=O)NS(=O)(=O)c2ccc(C)cc2)cc1OC
Found: -3.4

Lookup: Record request: inhibition value, item Cc1cc(C)cc(NC(=O)NC2CCN(CC(=O)Nc3cccc(Cl)c3C)CC2)c1
Found: 9.3

Lookup: Record request: inhibition value, item Cc1ccccc1CSCCNC(=O)c1ccc(N(C)S(=O)(=O)c2ccccc2)cc1
Found: 6.2

Lookup: Record request: inhibition value, item CC(O)CN(Cc1ccc(Cl)cc1)CC(C)O (centres undefined)
Found: 0.5

Lookup: Record request: inhibition value, item Cc1noc(C)c1COC(=O)Cn1c(C)nc2ccccc21
Found: -0.2

Lookup: Record request: inhibition value, item COc1ccc(C23NCCN2C(=O)c2ccccc23)cc1 (centres undefined)
Found: 8.9

Lookup: Record request: inhibition value, item CC1CCC(CN2CCN=C2N(C)C)CC1 (centres undefined)
Found: 8.2

Lookup: Record request: inhibition value, item Cc1cc(C)n(CCNC(=O)CC2C(=O)NCCN2Cc2ccc(C)o2)n1 (centres undefined)
Found: -10.6

Lookup: Record request: inhibition value, item CC(=O)N1CCc2cc(S(=O)(=O)Nc3ccccc3N3CCN(C)CC3)ccc21
Found: 3.6

Sourced from PubChem BioAssay AID651702
